Would you mind telling me the reported normalized RNA/DNA level without ligand (log10) of each entry?
B1: library; a variant is named by its letters at N, in order (parent)
chain: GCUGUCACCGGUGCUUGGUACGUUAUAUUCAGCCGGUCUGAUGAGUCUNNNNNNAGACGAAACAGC

- Variants of: B1
- procedure-summary: normalized RNA/DNA level without ligand (relative to sTRSVctl = 100) (log10 (% of sTRSVctl)); HEK293T overexpressing SLC46A1; higher = less ribozyme self-cleavage, higher mRNA level
- condition-parameters: without (6R,S)-folinic acid; ligand present: no
Answers are plain numbers.

Use the examples below as a reference point.
1) GCUGUCACCGGUGCUUGGUACGUUAUAUUCAGCCGGUCUGAUGAGUCUAGUCUGAGACGAAACAGC = 1.97
2) GCUGUCACCGGUGCUUGGUACGUUAUAUUCAGCCGGUCUGAUGAGUCUUCAGUUAGACGAAACAGC = 2.01
3) GCUGUCACCGGUGCUUGGUACGUUAUAUUCAGCCGGUCUGAUGAGUCUUCCCGGAGACGAAACAGC = 2.05
4) GCUGUCACCGGUGCUUGGUACGUUAUAUUCAGCCGGUCUGAUGAGUCUGCGCUCAGACGAAACAGC = 2.05

Look at each variant and report its normalized RNA/DNA level without ligand (log10).
1. GCUGUCACCGGUGCUUGGUACGUUAUAUUCAGCCGGUCUGAUGAGUCUCGCCCGAGACGAAACAGC
2. GCUGUCACCGGUGCUUGGUACGUUAUAUUCAGCCGGUCUGAUGAGUCUUUUGCAAGACGAAACAGC
3. GCUGUCACCGGUGCUUGGUACGUUAUAUUCAGCCGGUCUGAUGAGUCUAGGUUUAGACGAAACAGC
4. GCUGUCACCGGUGCUUGGUACGUUAUAUUCAGCCGGUCUGAUGAGUCUAAACCGAGACGAAACAGC
5. GCUGUCACCGGUGCUUGGUACGUUAUAUUCAGCCGGUCUGAUGAGUCUCCGGCCAGACGAAACAGC

1: 2.03; 2: 1.98; 3: 2; 4: 1.97; 5: 2.09
